Experiment: Cytotoxicity assay in MT-4 cells
Assay type: cell-based
Conditions: human, uninfected MT-4 cells, average of at least two independent experiments, read-out: MT4 CC50
A collection of compounds and their measured log10 of CC50 at 5 days
Scale: log10; quantity: CC50 at 5 days; unit before log: µM

Consider the reported log10 of CC50 at 5 days for these compounds:
C[C@H](Cn1cnc2c(N)ncnc21)OCP(=O)(NC(C)(C)C(=O)OC1CCC2(CCC2)CC1)NC(C)(C)C(=O)OC1CCC2(CCC2)CC1 (stereo partly drawn)    0.35
CCCCCCOC(=O)C(CC)(CC)NP(=O)(CO[C@H](C)Cn1cnc2c(N)ncnc21)NC(CC)(CC)C(=O)OCCCCCC    0.83
C[C@H](Cn1cnc2c(N)ncnc21)OCP(=O)(NC(C)(C)C(=O)OCCC12CC(C1)C2)NC(C)(C)C(=O)OCCC12CC(C1)C2    0.50
CCCCCCOC(=O)C(C)(C)NP(=O)(CO[C@H](C)Cn1cnc2c(N)ncnc21)NC1(C(=O)OCCCCCC)CCC1 (stereo partly drawn)    0.82

CCC(C)(C)CCOC(=O)C(C)(C)NP(=O)(CO[C@H](C)Cn1cnc2c(N)ncnc21)NC(C)(C)C(=O)OCCC(C)(C)CC has a reported log10 of CC50 at 5 days of 0.83

Value of log10 of CC50 at 5 days reported for the compound C[C@H](Cn1cnc2c(N)ncnc21)OCP(=O)(NC(C)(C)C(=O)O[C@@H]1C[C@@H]2C[C@@H]2C1)NC(C)(C)C(=O)O[C@@H]1C[C@@H]2C[C@@H]2C1 is 0.52

Quick note, log10 of CC50 at 5 days for CCCCCCOC(=O)C(C)(C)NP(=O)(CO[C@H](C)Cn1cnc2c(NC(=O)OCC(C)(C)C(=O)OCc3oc(=O)oc3C)ncnc21)NC(C)(C)C(=O)OCCCCCC landed at 1.39

// C[C@H](Cn1cnc2c(N)ncnc21)OCP(=O)(NC(C)(C)C(=O)OCC1CCC(F)(F)CC1)NC(C)(C)C(=O)OCC1CCC(F)(F)CC1 : log10 of CC50 at 5 days value = 0.86

Lab book: log10 of CC50 at 5 days of CCCCCCOC(=O)C(C)(C)NP(=O)(CO[C@H](C)Cn1cnc2c(N)ncnc21)NC(C)(C)C(=O)OCCCCCC noted as 0.70

log10 of CC50 at 5 days recorded for this compound, CCCCCCOC(=O)C(C)(C)NP(=O)(CO[C@H](C)Cn1cnc2/c(=N\Cc3oc(=O)oc3C)n(Cc3oc(=O)oc3C)cnc21)NC(C)(C)C(=O)OCCCCCC , is 1.03

The compound listed as CCCCCCOC(=O)C(C)(C)NP(=O)(CO[C@H](C)Cn1cnc2c(NC(=O)CC(C)(C)CC(=O)OCc3oc(=O)oc3C)ncnc21)NC(C)(C)C(=O)OCCCCCC shows log10 of CC50 at 5 days equal to 1.65

* * *

Test: Cytotoxicity assay in primary human hepatocytes (PHHs)
Format: cell-based
Settings: HBV-infected primary human hepatocytes, HBV-infected PHH, Cell Titer Glo, average of at least two independent experiments
Examples of compounds with documented CC50 at 5 days follow.

C[C@H](Cn1cnc2c(N)ncnc21)OCP(=O)(NC(C)(C)C(=O)OC[C@H]1CC[C@H](C)CC1)NC(C)(C)C(=O)OC[C@H]1CC[C@H](C)CC1 [Example 91]    > 100 nM
CCCCCCOC(=O)C(C)(C)NP(=O)(CO[C@H](C)Cn1cnc2c(N)ncnc21)NC(C)(C)C(=O)OCCCCCC [Example 1]    > 100 nM
C[C@H](Cn1cnc2c(N)ncnc21)OCP(=O)(NC(C)(C)C(=O)OCC1CC2(C1)CC1(CCC1)C2)NC(C)(C)C(=O)OCC1CC2(C1)CC1(CCC1)C2 [Example 57]    > 100 nM

For CCCCCCCCOC(=O)C(C)(C)NP(=O)(CO[C@H](C)Cn1cnc2c(N)ncnc21)NC(C)(C)C(=O)OCCCCCCCC [Example 39] the compound record lists CC50 at 5 days as > 100 nM

Record summary for CCCCCCCOC(=O)C(C)(C)NP(=O)(CO[C@H](C)Cn1cnc2c(N)ncnc21)NC(C)(C)C(=O)OCCCCCCC [Example 66] : reported CC50 at 5 days = > 100 nM

// CC50 at 5 days value for CCCCCCOC(=O)C(C)(C)NP(=O)(CO[C@H](C)Cn1cnc2c(NC(=O)OCc3oc(=O)oc3C)ncnc21)NC(C)(C)C(=O)OCCCCCC [Example 33] : > 100 nM

C[C@H](Cn1cnc2c(N)ncnc21)OCP(=O)(NC(C)(C)C(=O)OC1CCC2(CCCC2)CC1)NC(C)(C)C(=O)OC1CCC2(CCCC2)CC1 (stereo partly shown) [Example 61] has a reported CC50 at 5 days of > 100 nM

Value of measured CC50 at 5 days for the entry CCCCCOC(=O)C(C)(C)NP(=O)(CO[C@H](C)Cn1cnc2c(N)ncnc21)NC(C)(C)C(=O)OCCCCC [Example 4] : > 100 nM

Lab note: measured CC50 at 5 days of C[C@H](Cn1cnc2c(N)ncnc21)OCP(=O)(NC(C)(C)C(=O)OC1CC2(CCCCC2)C1)NC(C)(C)C(=O)OC1CC2(CCCCC2)C1 (stereo partly shown) [Example 86] was > 100 nM

Record CCCCCCOC(=O)C(CC)(CC)NP(=O)(CO[C@H](C)Cn1cnc2c(N)ncnc21)NC(CC)(CC)C(=O)OCCCCCC [Example 65] . Reported CC50 at 5 days: > 100 nM

* * *

Test system: HBV
Assay: Antiviral (HBV) assay in primary human hepatocytes (PHHs)
Assay type: cell-based
Conditions: Hepatitis B virus, Hepatocyte, 120 h; HBV (GTD) infected PHH, 5 days, HBV DNA in supernatant; average of at least two independent experiments
Description: Example 106: Antiviral (HBV) Assay in Primary Human Hepatocytes (PHHs) Cryopreserved PHH were thawed, recovered by centrifugation at 100 g in cryopreserved hepatocyte recovery medium (Thermo Fisher Scientific; CM7500), and plated on collagen matrix (Life Technologies; Catalog Number: R-011-K) coated T225 flasks (Corning CellBIND, Catalog Number: 3293) at a density of 25E6 live cells in 60 mls media. […]
Entries annotated with measured pEC50
Bear in mind: pEC50 is minus log10 of a mol/L concentration; give just that figure.

Below are worked cases with known answers.
CCCCCCOC(=O)C(C)(C)NP(=O)(CO[C@H](C)Cn1cnc2c(=N)n(Cc3oc(=O)oc3C)cnc21)NC(C)(C)C(=O)OCCCCCC [Example 83]    8.67
CCC(C)(C)CCOC(=O)C(C)(C)NP(=O)(CO[C@H](C)Cn1cnc2c(N)ncnc21)NC(C)(C)C(=O)OCCC(C)(C)CC [Example 54]    8.35
C[C@H](Cn1cnc2c(N)ncnc21)OCP(=O)(NC(C)(C)C(=O)O[C@H](C)C1CCCCC1)NC(C)(C)C(=O)O[C@H](C)C1CCCCC1 [Example 55]    8.20
C[C@H](Cn1cnc2c(N)ncnc21)OCP(=O)(NC(C)(C)C(=O)OC1CC2(CCCCC2)C1)NC(C)(C)C(=O)OC1CC2(CCCCC2)C1 (stereo partly drawn) [Example 86]    8.50
C[C@H](Cn1cnc2c(N)ncnc21)OCP(=O)(NC(C)(C)C(=O)OC[C@H]1CC[C@H](C)CC1)NC(C)(C)C(=O)OC[C@H]1CC[C@H](C)CC1 [Example 91]    8.42

Moving on to another molecule below.
Lookup result for C[C@H](Cn1cnc2c(N)ncnc21)OCP(=O)(NC(C)(C)C(=O)O[C@@H](C)C1CCCCC1)NC(C)(C)C(=O)O[C@@H](C)C1CCCCC1 [Example 56] ; measured pEC50: 8.40

* * *

Test: Cytotoxicity assay in MT-4 cells
Type: cell-based
Details: human, uninfected MT-4 cells, average of at least two independent experiments, read-out: MT4 CC50
Field 'label' (enum: t / f). Set to t when CC50 at 5 days is strictly under 6 µM; else f.

CCC[C@H]1CC[C@H](COC(=O)C(C)(C)NP(=O)(CO[C@H](C)Cn2cnc3c(N)ncnc32)NC(C)(C)C(=O)OC[C@H]2CC[C@H](CCC)CC2)CC1    f
CCCCCCCOC(=O)C(C)(C)NP(=O)(CO[C@H](C)Cn1cnc2c(N)ncnc21)NC(C)(C)C(=O)OCCCCCCC    t
CCCCCCOC(=O)C(C)(C)NP(=O)(CO[C@H](C)Cn1cnc2c(NC(=O)CCCC(=O)OCc3oc(=O)oc3C)ncnc21)NC(C)(C)C(=O)OCCCCCC    f
CCCCCCOC(=O)C(C)(C)NP(=O)(CO[C@H](C)Cn1cnc2c(NC(=O)OCCC)ncnc21)NC(C)(C)C(=O)OCCCCCC    f
C[C@H](Cn1cnc2c(N)ncnc21)OCP(=O)(NC(C)(C)C(=O)OCC12CC3CC(CC(C3)C1)C2)NC(C)(C)C(=O)OCC12CC3CC(CC(C3)C1)C2    f
C[C@H](Cn1cnc2c(N)ncnc21)OCP(=O)(NC(C)(C)C(=O)OCC1CCCCCC1)NC(C)(C)C(=O)OCC1CCCCCC1    t
C[C@H](Cn1cnc2c(N)ncnc21)OCP(=O)(NC(C)(C)C(=O)OCc1ccccc1)NC(C)(C)C(=O)OCc1ccccc1    t
C[C@H](Cn1cnc2c(N)ncnc21)OCP(=O)(NC(C)(C)C(=O)OCC1CC2(CCC2)C1)NC(C)(C)C(=O)OCC1CC2(CCC2)C1 (stereo partly drawn)    f
C[C@H](Cn1cnc2c(N)ncnc21)OCP(=O)(NC(C)(C)C(=O)OC1CC(C2CCC2)C1)NC(C)(C)C(=O)OC1CC(C2CCC2)C1 (stereo partly drawn)    t

Would you kindly look at the next entry?
Task: Lab note: CC50 at 5 days threshold 6 µM. Does this compound come in strictly under it? CCCCCCOC(=O)C(C)(C)NP(=O)(CO[C@H](C)Cn1cnc2c(NC(=O)OCc3oc(=O)oc3C)ncnc21)NC(C)(C)C(=O)OCCCCCC
Result: f
